B1: CPEB3 Ribozyme (parent)
chain: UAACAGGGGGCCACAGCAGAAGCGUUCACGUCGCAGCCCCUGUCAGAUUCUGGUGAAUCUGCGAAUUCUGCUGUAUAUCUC

# Variants of: B1
# EXPERIMENTAL PROTOCOL: self-cleavage, relative activity (ratio to wild type); higher = more cleavage; in vitro, sequencing
# self-cleavage listing for each entry below
Reply with the value as a number alone.

C23G U26C :: 0.25

Req: Which measured self-cleavage value corresponds to U25C U69G ?
Resp: 0.21

Req: Value lookup for self-cleavage; key = G33C A56G
Resp: 0.12
